Reference for the values: the RNAGym collection of RNA variant scans (doi:10.7554/elife.80360)

B1: CPEB3 Ribozyme (parent)
chain: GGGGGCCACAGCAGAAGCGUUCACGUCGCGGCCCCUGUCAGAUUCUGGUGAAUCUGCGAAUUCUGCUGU

- Variants of: B1
- Protocol text: self-cleavage, relative activity (ratio to wild type); higher = more cleavage; co-transcriptional
Decision: self-cleavage >= 0.7 yields satisfied, all other cases yield not satisfied.

Use the examples below as a reference point.
GGGGGCGACAGCAGAAGCGUUCACGUCGCGGCCCCUGUCAGAUUCUGGUGAAUCUGCGAAUUCUCCUGU [C7G G65C] :: not satisfied
GGGGGCCACAGCAGAAGCGUUCUCGUCGCGGCCCCUGUCAGAUUCUGGUGAAUCUGCGAAUUCUGCAGU [A23U U67A] :: satisfied
GGGGGCCACAGCAGAAGCGUUCACGUCGCGGCCCCUGUCAGCUUCUGGUGAAUCUGGGAAUUCUGCUGU [A42C C57G] :: not satisfied
GGGGGCCACAGCAGAAGGGUGCACGUCGCGGCCCCUGUCAGAUUCUGGUGAAUCUGCGAAUUCUGCUGU [C18G U21G] :: not satisfied
GGGGGCCACAGCAGAACCGUUCACGUCGCGGCCCCUGUCAGAUUCUGGUGAAUCUGCGAAUUUUGCUGU [G17C C63U] :: not satisfied

Does GGGCGCCACAGAAGAAGCGUUCACGUCGCGGCCCCUGUCAGAUUCUGGUGAAUCUGCGAAUUCUGCUGU [G4C C12A] have a reported self-cleavage of at least 0.7?
not satisfied

Does GGGGGCCACAGCAGAAGCGUACACGUCGCGGCCCCUGUCAGAUUCUGGUGAGUCUGCGAAUUCUGCUGU [U21A A52G] have a reported self-cleavage of at least 0.7?
satisfied

Does GGGGGCCACAGCAGUAGCGUUCACGUCGCGGCCCCUGUCAGAUUCUAGUGAAUCUGCGAAUUCUGCUGU [A15U G47A] have a reported self-cleavage of at least 0.7?
satisfied
